Data provenance is ChEMBL document CHEMBL3817725.

Could you please report measured log10 IC50 for the items listed next?
- system: Sodium-dependent noradrenaline transporter (Homo sapiens, UniProt P23975)
- Sequence (P23975 whole entry): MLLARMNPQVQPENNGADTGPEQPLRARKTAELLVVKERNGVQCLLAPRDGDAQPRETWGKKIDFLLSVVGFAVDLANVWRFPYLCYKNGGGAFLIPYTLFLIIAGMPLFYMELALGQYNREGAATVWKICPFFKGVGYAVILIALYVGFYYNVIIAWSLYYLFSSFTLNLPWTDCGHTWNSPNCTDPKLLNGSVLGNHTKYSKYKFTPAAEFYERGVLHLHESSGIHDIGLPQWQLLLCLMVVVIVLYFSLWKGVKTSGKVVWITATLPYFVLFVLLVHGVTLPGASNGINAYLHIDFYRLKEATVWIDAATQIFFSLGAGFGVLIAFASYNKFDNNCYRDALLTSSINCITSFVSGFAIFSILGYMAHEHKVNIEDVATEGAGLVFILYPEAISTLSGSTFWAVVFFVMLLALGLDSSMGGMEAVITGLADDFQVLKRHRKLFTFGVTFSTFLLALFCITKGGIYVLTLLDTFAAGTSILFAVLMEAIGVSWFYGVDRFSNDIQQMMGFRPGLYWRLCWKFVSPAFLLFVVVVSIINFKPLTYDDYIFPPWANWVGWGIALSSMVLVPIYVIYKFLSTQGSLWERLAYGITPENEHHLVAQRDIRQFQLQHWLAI
- procedure_details: Inhibition of human NET expressed in CHO cells assessed as [3H]-Norepinephrine reuptake incubated for 45 mins measured after 30 mins by topcount method
For clarity, the numbers are log10 values of IC50 expressed in nM.

Give one value of log10 IC50 per listed compound.
1. Cl.O=c1c(-c2nnn[nH]2)cccn1C[C@@H]1CNCCO[C@H]1c1ccc(Cl)c(F)c1
2. Cl.O=c1[nH]c(-c2ccn(C[C@@H]3CNCCO[C@H]3c3ccc(Cl)c(F)c3)c(=O)c2)no1
3. Cc1nnc(-c2cccn(C[C@@H]3CNCCO[C@H]3c3ccc(Cl)c(F)c3)c2=O)[nH]1.Cl
4. Cl.O=c1ccccn1C[C@@H]1CNCCO[C@H]1c1ccc(Cl)c(F)c1

1. 0.15
2. 0.28
3. -0.19
4. -1.10

Batch request: log10 IC50 for each of the following compounds.
1. O=C1NCCCN1C[C@@H]1CNCCO[C@H]1c1ccc(Cl)c(F)c1
2. COC(=O)c1cccn(C[C@@H]2CNCCO[C@H]2c2ccc(Cl)c(F)c2)c1=O.Cl
3. Cl.O=C(O)c1cccn(C[C@@H]2CNCCO[C@H]2c2ccc(Cl)c(F)c2)c1=O
4. Cl.O=c1[nH]c(-c2cccc(=O)n2C[C@@H]2CNCCO[C@H]2c2ccc(Cl)c(F)c2)no1

1: -1.10; 2: -0.68; 3: 0.04; 4: 2.00

Bench note: what log10 IC50 did O=C1CCCN1C[C@@H]1CNCCO[C@H]1c1ccc(Cl)c(F)c1 show?
-0.89

====

Give MRT for every item shown.
- procedure_details: Mean residence time in Crl:CD(SD)(IGS) rat at 1 mg/kg, po administered via cassette dosing by LC/MS/MS analysis
- Format: ADME, organism-based
- particulars: in vivo
Answers are plain numbers, in h.

Consider the following illustrative entries.
Cl.O=c1ccccn1C[C@@H]1CNCCO[C@H]1c1ccc(Cl)c(F)c1; 2.1
Cl.O=c1[nH]c(-c2cccn(C[C@@H]3CNCCO[C@H]3c3ccc(Cl)c(F)c3)c2=O)no1; 1.5
Cl.O=C(O)c1cccn(C[C@@H]2CNCCO[C@H]2c2ccc(Cl)c(F)c2)c1=O; 1.9

Continue with the next compound.
What value of MRT has been recorded for this entry: Cl.O=c1c(-c2nnn[nH]2)cccn1C[C@@H]1CNCCO[C@H]1c1ccc(Cl)c(F)c1
2

====

- procedure_details: Dissociation constant, pKa of the compound
- Assay type: physicochemical
Please enter condition met where pKa is greater than or equal to 6, and condition not met where it is lower.

Cc1nnc(-c2cccn(C[C@@H]3CNCCO[C@H]3c3ccc(Cl)c(F)c3)c2=O)[nH]1.Cl; condition met

Could you now look at the following molecule, please?
Hello, I need to know if Cl.O=C(O)c1cccn(C[C@@H]2CNCCO[C@H]2c2ccc(Cl)c(F)c2)c1=O has measured pKa not below 6. Thanks!
condition not met

====

- Test system: MDR1
- procedure_details: Efflux ratio of apparent permeability from basolateral to apical side over apical to basolateral side in pig LLC-PK1 cells expressing human MDR1 at 10 umol/l after 2 hrs by LC/MS/MS analysis
- Assay type: ADME, cell-based, Sus scrofa
readout: efflux ratio at 2 h, 10 µM
One number for each entry.

# annotated cases, reported efflux ratio at 2 h, 10 µM shown
Cl.O=c1c(-c2nnn[nH]2)cccn1C[C@@H]1CNCCO[C@H]1c1ccc(Cl)c(F)c1; 1.7
Cl.O=c1[nH]c(-c2ccc(=O)n(C[C@@H]3CNCCO[C@H]3c3ccc(Cl)c(F)c3)c2)no1; 1.6
Cc1nnc(-c2cccn(C[C@@H]3CNCCO[C@H]3c3ccc(Cl)c(F)c3)c2=O)[nH]1.Cl; 6.8
Cl.O=c1[nH]c(-c2cccc(=O)n2C[C@@H]2CNCCO[C@H]2c2ccc(Cl)c(F)c2)no1; 0.6
Cl.O=C(O)c1cccn(C[C@@H]2CNCCO[C@H]2c2ccc(Cl)c(F)c2)c1=O; 2.1
Cl.O=c1[nH]c(-c2cccn(C[C@@H]3CNCCO[C@H]3c3ccc(Cl)c(F)c3)c2=O)no1; 1.9

// below: efflux ratio at 2 h, 10 µM requested for another compound
Which efflux ratio at 2 h, 10 µM is listed for COC(=O)c1cccn(C[C@@H]2CNCCO[C@H]2c2ccc(Cl)c(F)c2)c1=O.Cl ?
7.8

====

- Organism: Homo sapiens
- procedure_details: Selectivity ratio of IC50 for human SERT to IC50 for human NET
One threshold, 1000, splits the recorded Ratio IC50 values: lower ones are true (1), equal or higher ones are false (0).

Solved entries (count: 4):
O=C1NCCCN1C[C@@H]1CNCCO[C@H]1c1ccc(Cl)c(F)c1; true (1)
Cl.O=c1ccccn1C[C@@H]1CNCCO[C@H]1c1ccc(Cl)c(F)c1; false (0)
O=C1CCCCN1C[C@@H]1CNCCO[C@H]1c1ccc(Cl)c(F)c1; true (1)
O=C1CCCN1C[C@@H]1CNCCO[C@H]1c1ccc(Cl)c(F)c1; true (1)

Then this compound:
Confirm or reject: Ratio IC50 of O=c1cccnn1C[C@@H]1CNCCO[C@H]1c1ccc(Cl)c(F)c1 lies strictly below 1000
false (0)

====

Kindly state IC50 for each of the entries shown.
- system: Sodium-dependent noradrenaline transporter (Homo sapiens, UniProt P23975)
- procedure_details: Inhibition of human NET expressed in CHO cells assessed as [3H]-Norepinephrine reuptake incubated for 45 mins measured after 30 mins by topcount method
Numbers only, in nM.

# count of solved cases: 3
Cl.O=c1[nH]c(-c2cccn(C[C@@H]3CNCCO[C@H]3c3ccc(Cl)c(F)c3)c2=O)no1; 1
O=c1cccnn1C[C@@H]1CNCCO[C@H]1c1ccc(Cl)c(F)c1; 0.065
O=C1CCCCN1C[C@@H]1CNCCO[C@H]1c1ccc(Cl)c(F)c1; 0.1

# evaluate next
Fill blank: measured IC50 of the compound Cl.O=c1[nH]c(-c2ccc(=O)n(C[C@@H]3CNCCO[C@H]3c3ccc(Cl)c(F)c3)c2)no1 is ____.
25

====

- Species: Homo sapiens
- procedure_details: Selectivity ratio of IC50 for human DAT to IC50 for human NET
readout: Ratio IC50
Answers are plain numbers.

Illustrative cases are given below, each with its answer.
O=C1NCCCN1C[C@@H]1CNCCO[C@H]1c1ccc(Cl)c(F)c1; 820
O=c1cccnn1C[C@@H]1CNCCO[C@H]1c1ccc(Cl)c(F)c1; 3600
O=C1CCCN1C[C@@H]1CNCCO[C@H]1c1ccc(Cl)c(F)c1; 3100

Note: attention shifts to another entry.
Which Ratio IC50 value belongs to O=C1CCCCN1C[C@@H]1CNCCO[C@H]1c1ccc(Cl)c(F)c1 ?
1300

====

- procedure_details: AUC in Crl:CD(SD)(IGS) rat at 1 mg/kg, po administered via cassette dosing by LC/MS/MS analysis
- Type: ADME, organism-based
- particulars: in vivo
Can you tell me AUC for the items I'm about to list?
One number for each entry, in ng·h/mL.

Cl.O=C(O)c1cccn(C[C@@H]2CNCCO[C@H]2c2ccc(Cl)c(F)c2)c1=O; 197

Here are 3 compounds. What values of AUC were reported for them?
1. Cl.O=c1ccccn1C[C@@H]1CNCCO[C@H]1c1ccc(Cl)c(F)c1
2. Cl.O=c1c(-c2nnn[nH]2)cccn1C[C@@H]1CNCCO[C@H]1c1ccc(Cl)c(F)c1
3. Cl.O=c1[nH]c(-c2cccn(C[C@@H]3CNCCO[C@H]3c3ccc(Cl)c(F)c3)c2=O)no1

[107, 44, 38.9]

====

- system: UniProt P31645
- Sequence (P31645 whole entry): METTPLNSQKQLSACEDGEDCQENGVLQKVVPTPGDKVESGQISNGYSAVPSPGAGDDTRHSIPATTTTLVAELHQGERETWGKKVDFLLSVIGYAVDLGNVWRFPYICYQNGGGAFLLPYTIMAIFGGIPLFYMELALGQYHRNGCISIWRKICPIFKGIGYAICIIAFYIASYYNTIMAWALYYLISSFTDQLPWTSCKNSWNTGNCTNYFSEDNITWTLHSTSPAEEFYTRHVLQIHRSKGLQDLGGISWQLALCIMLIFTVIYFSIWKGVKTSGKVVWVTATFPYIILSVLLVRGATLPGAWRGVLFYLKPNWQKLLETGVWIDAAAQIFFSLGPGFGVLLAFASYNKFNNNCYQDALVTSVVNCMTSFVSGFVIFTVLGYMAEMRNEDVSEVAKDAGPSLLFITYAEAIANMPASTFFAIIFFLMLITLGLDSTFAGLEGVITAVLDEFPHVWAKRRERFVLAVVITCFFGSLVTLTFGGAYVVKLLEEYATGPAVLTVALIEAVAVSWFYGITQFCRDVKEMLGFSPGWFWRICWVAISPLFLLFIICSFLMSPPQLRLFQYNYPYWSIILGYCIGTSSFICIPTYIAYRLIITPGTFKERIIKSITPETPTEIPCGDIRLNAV
- procedure_details: Inhibition of human SERT expressed in CHO cells assessed as [3H]-5-hydroxytryptamine reuptake incubated for 20 mins measured after 30 mins by topcount method
Exercise: for every item that follows, state its recorded IC50.
Answers are plain numbers, in nM.

Record excerpt, results attached:
O=c1cccnn1C[C@@H]1CNCCO[C@H]1c1ccc(Cl)c(F)c1; 79
O=C1CCCN1C[C@@H]1CNCCO[C@H]1c1ccc(Cl)c(F)c1; 85
Cl.O=c1c(-c2nnn[nH]2)cccn1C[C@@H]1CNCCO[C@H]1c1ccc(Cl)c(F)c1; 730
Cc1nnc(-c2cccn(C[C@@H]3CNCCO[C@H]3c3ccc(Cl)c(F)c3)c2=O)[nH]1.Cl; 67
Cl.O=c1[nH]c(-c2ccn(C[C@@H]3CNCCO[C@H]3c3ccc(Cl)c(F)c3)c(=O)c2)no1; 120
Cl.O=c1[nH]c(-c2cccn(C[C@@H]3CNCCO[C@H]3c3ccc(Cl)c(F)c3)c2=O)no1; 380
O=C1CCCCN1C[C@@H]1CNCCO[C@H]1c1ccc(Cl)c(F)c1; 27
Cl.O=c1ccccn1C[C@@H]1CNCCO[C@H]1c1ccc(Cl)c(F)c1; 130
COC(=O)c1cccn(C[C@@H]2CNCCO[C@H]2c2ccc(Cl)c(F)c2)c1=O.Cl; 54

Turning now to a further compound:
Param item = O=C1NCCCN1C[C@@H]1CNCCO[C@H]1c1ccc(Cl)c(F)c1 ; retrieve measured IC50.
12
